# experimentalDetails: chemical genetic growth profiling, strain panel (AID 1159580);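 further: tested at 20 µM; growth read once vehicle control cultures reached saturation at 30 °C; 1 = growth at the plate median or of vehicle wells; lower values mean less growth of the strain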
# conditionParameters: S. cerevisiae deletion strains, growth OD, locus YNR052C, strain pop2
Screen size: about 5,500 compounds; about 2,000 (36%) were called active. About 18% were inconclusive and are not listed. No stated cut-off is given here; in the data, active means normalized growth mostly below about 0.91 (no sharp cut-off); inconclusive means no clear call, values can overlap the other calls; inactive means mostly above about 0.92. The list shows a part of the results.
Labels: class 1 for active, class 0 for inactive

{"compound": "COc1cc(O)c2c(c1)C(=O)c1cc(C)cc(O)c1C2=O", "class": "class 0"}
{"compound": "C=C(C)C1Cc2c(ccc3c(=O)c4c(oc23)COc2cc(OC)c(OC)cc2-4)O1 (stereo unspecified)", "class": "class 0"}
{"compound": "COc1ccc(-c2c(O)c3c(OC)c4c(cc3oc2=O)OC(C)(C)C=C4)cc1", "class": "class 0"}
{"compound": "Cc1cc(O)c2c(c1)C(=O)c1cc(O)cc(O)c1C2=O", "class": "class 1"}
{"compound": "C=C[C@H]1CN2CC[C@H]1C[C@H]2[C@H](O)c1ccnc2ccccc12", "class": "class 0"}
{"compound": "C=C(C)C1Cc2c(ccc(C(=O)O)c2O)O1 (stereo unspecified)", "class": "class 0"}

----------
# experimentalDetails: chemical genetic growth profiling, strain panel (AID 1159580);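 further: tested at 20 µM; growth read once vehicle control cultures reached saturation at 30 °C; 1 = growth at the plate median or of vehicle wells; lower values mean less growth of the strain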
# conditionParameters: S. cerevisiae deletion strains, growth OD, locus YNL322C, strain KRE1 (second series), active compounds read low
The campaign covered roughly 5,500 compounds. About 2,000 (36%) were called active. Inconclusive results (about 18%) are left out. Some of the results follow.
normalized growth overview
quantity: normalized growth

{"molecule": "O=c1c(O)c(-c2ccc(O)cc2)oc2ccccc12", "quantity": "normalized growth", "quantitativeResult": 0.909}
{"molecule": "O=C1c2cccc(O)c2C(=O)c2c(O)cccc21", "quantity": "normalized growth", "quantitativeResult": 0.965}
{"molecule": "CC(=O)c1ccc[nH]1", "quantity": "normalized growth", "quantitativeResult": 0.986}
{"molecule": "O=C(Nc1ccc([N+](=O)[O-])cc1Cl)c1cc(Cl)ccc1O", "quantity": "normalized growth", "quantitativeResult": 1.06}
{"molecule": "C[N+]12CCC(CC1)C(OC(=O)C(O)(c1ccccc1)c1ccccc1)C2 (stereo not drawn)", "quantity": "normalized growth", "quantitativeResult": 0.966}
{"molecule": "O=c1c(O)c(-c2ccccc2)oc2cc(O)ccc12", "quantity": "normalized growth", "quantitativeResult": 0.971}
{"molecule": "Oc1cc2c(cc1O)C(c1ccccc1)CNCC2 (stereo not drawn)", "quantity": "normalized growth", "quantitativeResult": 0.989}
{"molecule": "O=c1c(O)c(-c2ccccc2)oc2ccccc12", "quantity": "normalized growth", "quantitativeResult": 0.851}
{"molecule": "Cc1cc(O)c2c(c1)C(=O)c1cccc(O)c1C2=O", "quantity": "normalized growth", "quantitativeResult": 1.02}
{"molecule": "O=c1c(O)c(-c2ccccc2)oc2cccc(O)c12", "quantity": "normalized growth", "quantitativeResult": 0.926}
{"molecule": "O=c1c(O)c(-c2ccccc2)oc2ccc3occc3c12", "quantity": "normalized growth", "quantitativeResult": 0.814}
{"molecule": "CCCCN(CC)c1c([N+](=O)[O-])cc(C(F)(F)F)cc1[N+](=O)[O-]", "quantity": "normalized growth", "quantitativeResult": 1.01}
{"molecule": "CC(C)C1CCC(C(=O)N[C@@H](Cc2ccccc2)C(=O)O)CC1 (stereo partly drawn)", "quantity": "normalized growth", "quantitativeResult": 0.992}
{"molecule": "CC(=O)c1c(O)cc(O)cc1O", "quantity": "normalized growth", "quantitativeResult": 0.99}
{"molecule": "CN1CCC[C@H]1c1cccnc1", "quantity": "normalized growth", "quantitativeResult": 1.04}
{"molecule": "O=C1C=C(O)c2ccccc2C1=O", "quantity": "normalized growth", "quantitativeResult": 0.944}
{"molecule": "CNC(C)(C)Cc1ccccc1", "quantity": "normalized growth", "quantitativeResult": 1.02}
{"molecule": "CNC(=O)Oc1ccccc1OC(C)C", "quantity": "normalized growth", "quantitativeResult": 0.98}
{"molecule": "C[C@H]1C(=O)CCC2[C@]3(C)CC[C@@]4(C)C5CC(C)(C)CC[C@]5(C)CC[C@]4(C)C3CC[C@@]21C (stereo partly drawn)", "quantity": "normalized growth", "quantitativeResult": 0.985}
{"molecule": "CC[C@H]1OC(=O)[C@H](C)[C@@H](O[C@H]2C[C@@](C)(OC)[C@@H](O)[C@H](C)O2)[C@H](C)[C@@H](O[C@@H]2O[C@H](C)C[C@H](N(C)C)[C@H]2O)[C@](C)(O)C[C@@H](C)/C(=N/OCOCCOC)[C@H](C)[C@@H](O)[C@]1(C)O", "quantity": "normalized growth", "quantitativeResult": 1.01}
{"molecule": "CON", "quantity": "normalized growth", "quantitativeResult": 1.01}
{"molecule": "C=C[C@H]1CN2CC[C@H]1C[C@H]2[C@H](O)c1ccnc2ccccc12", "quantity": "normalized growth", "quantitativeResult": 0.99}
{"molecule": "COCC1=C(C(=O)OC(C)OC(=O)OC(C)C)N2C(=O)[C@@H](NC(=O)/C(=N\\OC)c3csc(N)n3)[C@H]2SC1 (stereo partly drawn)", "quantity": "normalized growth", "quantitativeResult": 0.982}

----------
# experimentalDetails: chemical genetic growth profiling, strain panel (AID 1159580);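 further: tested at 20 µM; growth read once vehicle control cultures reached saturation at 30 °C; 1 = growth at the plate median or of vehicle wells; lower values mean less growth of the strain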
# conditionParameters: S. cerevisiae deletion strains, growth OD, locus YMR231W, strain pep5
Hit rate of the full screen: of about 5,500 compounds, about 2,000 (36%) were called active. Inconclusive results (about 18%) are left out. Cut-off read from the data, not from the text of the source: active = normalized growth mostly below about 0.91 (no sharp cut-off); inconclusive = no clear call, values can overlap the other calls; inactive = mostly above about 0.92. Some of the results follow.
Labels: active, inactive

{"compound": "CC(=O)NC1C(O)OC(COS(=O)(=O)O)C(OC2OC(C(=O)O)C(OC3OC(CO)C(OC4OC(C(=O)O)C(O)C(O)C4OS(=O)(=O)O)C(OS(=O)(=O)O)C3NS(=O)(=O)O)C(O)C2OS(=O)(=O)O)C1O (stereo unspecified)", "class": "inactive"}
{"compound": "O=C1C=CC(=O)c2ccccc21", "class": "active"}
{"compound": "O=C1NS(=O)(=O)c2ccccc21", "class": "inactive"}
{"compound": "O=C1C=CC(=O)c2c(O)c(Cl)c(Cl)c(O)c21", "class": "active"}
{"compound": "CC(=CC1CCC(C)C2CCC(C)=C12)C(=O)O (stereo unspecified)", "class": "active"}
{"compound": "COc1ccc([C@@H](C)C(=O)c2ccc(O)cc2O)cc1", "class": "inactive"}
{"compound": "C=C[C@H]1CN2CC[C@H]1C[C@H]2[C@H](O)c1ccnc2ccccc12", "class": "inactive"}
{"compound": "Cc1cc2nc3c(=O)[nH]c(=O)nc-3n(CC(O)C(O)C(O)CO)c2cc1C (stereo unspecified)", "class": "inactive"}
{"compound": "C/C(=C\\CO)CC[C@H](C)CCC[C@H](C)CCCC(C)C", "class": "active"}
{"compound": "O=c1c(O)c(-c2ccccc2)oc2cccc(O)c12", "class": "active"}
{"compound": "O=C(O)CC[N+](=O)[O-]", "class": "inactive"}
{"compound": "CC1CC(OC(=O)c2ccccc2O)CC(C)(C)C1 (stereo unspecified)", "class": "inactive"}
{"compound": "CC(=O)O[C@H]1CC2CCC3C(CC[C@@]4(C)C3C[C@H]([N+]3(C)CCCCC3)[C@@H]4OC(C)=O)[C@@]2(C)C[C@@H]1N1CCCCC1 (stereo partly specified)", "class": "inactive"}
{"compound": "CNC(=O)Oc1ccccc1OC(C)C", "class": "inactive"}
{"compound": "CC(=CC1CCC(C)C2C1=C(C)CC2O)C(=O)O (stereo unspecified)", "class": "inactive"}
{"compound": "Oc1cccc2cccnc12", "class": "active"}
{"compound": "CNC(C)[C@@H]1CC[C@@H](N)[C@@H](OC2[C@@H](N)C[C@@H](N)[C@H](OC3OC[C@](C)(O)[C@H](NC)[C@H]3O)[C@H]2O)O1 (stereo partly specified)", "class": "inactive"}
{"compound": "CO/N=C(/C(=O)NC1C(=O)N2C(C(=O)OCOC(=O)C(C)(C)C)=C(/C=C\\c3scnc3C)CSC12)c1csc(N)n1 (stereo unspecified)", "class": "inactive"}
{"compound": "C=CC[C@@H]1/C=C(\\C)C[C@H](C)C[C@H](OC)[C@H]2O[C@@](O)(C(=O)C(=O)N3CCCC[C@H]3C(=O)O[C@H](/C(C)=C/[C@@H]3CC[C@@H](O)[C@H](OC)C3)[C@H](C)[C@@H](O)CC1=O)[C@H](C)C[C@@H]2OC", "class": "active"}
{"compound": "COc1cc(O)ccc1C(C)=O", "class": "inactive"}
{"compound": "CC(C)c1cc2c(c(O)c1O)[C@@]1(C(=O)O)CCCC(C)(C)C1CC2 (stereo partly specified)", "class": "inactive"}

Sourced from PubChem BioAssay AID1159580
